- Target Under Test: dopamine D2LR (Homo sapiens)
- Sequence (P14416 whole entry): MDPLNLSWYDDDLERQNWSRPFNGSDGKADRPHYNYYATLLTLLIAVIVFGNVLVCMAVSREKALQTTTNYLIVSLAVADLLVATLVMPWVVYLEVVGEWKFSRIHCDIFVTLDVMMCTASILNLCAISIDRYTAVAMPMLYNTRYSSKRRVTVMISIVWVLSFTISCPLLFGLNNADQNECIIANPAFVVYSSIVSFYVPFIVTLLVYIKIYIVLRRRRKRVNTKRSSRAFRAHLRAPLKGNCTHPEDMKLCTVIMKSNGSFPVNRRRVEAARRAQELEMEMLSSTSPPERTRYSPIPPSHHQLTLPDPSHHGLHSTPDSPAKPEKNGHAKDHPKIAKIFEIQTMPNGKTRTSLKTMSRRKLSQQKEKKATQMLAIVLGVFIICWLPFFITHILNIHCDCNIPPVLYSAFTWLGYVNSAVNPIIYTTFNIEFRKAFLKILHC
- Measurement Description: Radioligand binding assay, [3H]-raclopride displacement
- Measurement Parameters: mean ± SD from two independent measurements; read-out: Ki D2
Value Type: pKi
Give bare numbers, as −log10 of the molar value.

C[C@]1(c2ccc(F)cc2)NC(=O)N(C[C@@H](O)CN2CCN(C(c3ccccc3)c3ccccc3)CC2)C1=O :: 6.33
COc1ccccc1N1CCN(CC(O)CN2C(=O)NC(C)(c3ccc(F)cc3)C2=O)CC1 (stereo not shown) :: 6.15
COc1ccccc1N1CCN(C[C@@H](O)CN2C(=O)N[C@@](C)(c3ccc(F)cc3)C2=O)CC1 :: 6.05

# batch: return pKi for each of the 5 compounds below
1. COc1ccccc1N1CCN(C[C@H](O)CN2C(=O)N[C@](C)(c3ccc(F)cc3)C2=O)CC1
2. COc1ccccc1N1CCN(C[C@@H](O)CN2C(=O)N[C@](C)(c3ccc(F)cc3)C2=O)CC1
3. C[C@]1(c2ccc(F)cc2)NC(=O)N(C[C@H](O)CN2CCN(C(c3ccccc3)c3ccccc3)CC2)C1=O
4. CC1(c2ccc(F)cc2)NC(=O)N(CC(O)CN2CCN(C(c3ccccc3)c3ccccc3)CC2)C1=O (stereo not shown)
5. COc1ccccc1N1CCN(C[C@H](O)CN2C(=O)N[C@@](C)(c3ccc(F)cc3)C2=O)CC1

Solution:
1: 6.34; 2: 6.15; 3: 5.82; 4: 6.58; 5: 5.96

Dear reader, for each entry below, please note its pKi.
1. C[C@@]1(c2ccc(F)cc2)NC(=O)N(C[C@@H](O)CN2CCN(C(c3ccccc3)c3ccccc3)CC2)C1=O
2. C[C@@]1(c2ccc(F)cc2)NC(=O)N(C[C@H](O)CN2CCN(C(c3ccccc3)c3ccccc3)CC2)C1=O

Solution:
1. 6.51
2. 6.29

====

- Target Under Test: 5-HT7R (Homo sapiens)
- Sequence (P34969 1-432): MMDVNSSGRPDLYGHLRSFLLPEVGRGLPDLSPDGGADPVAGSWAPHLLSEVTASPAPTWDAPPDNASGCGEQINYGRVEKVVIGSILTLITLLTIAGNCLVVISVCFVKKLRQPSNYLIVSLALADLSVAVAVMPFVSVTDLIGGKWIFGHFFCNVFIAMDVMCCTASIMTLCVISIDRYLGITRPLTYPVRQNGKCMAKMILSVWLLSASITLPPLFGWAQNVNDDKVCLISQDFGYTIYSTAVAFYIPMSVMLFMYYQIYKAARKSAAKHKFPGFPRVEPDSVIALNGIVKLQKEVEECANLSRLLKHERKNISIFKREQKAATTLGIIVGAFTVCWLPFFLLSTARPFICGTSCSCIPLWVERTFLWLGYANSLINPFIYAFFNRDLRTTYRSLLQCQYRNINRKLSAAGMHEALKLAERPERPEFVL
- Measurement Description: Radioligand binding assay, [3H]-5-CT displacement
- Measurement Parameters: mean ± SD from two independent measurements; read-out: Ki 5-HT7
Value Type: Ki (nM)
One number for each entry, in nM.

Some solved cases for reference:
C[C@]1(c2ccc(F)cc2)NC(=O)N(C[C@H](O)CN2CCN(C(c3ccccc3)c3ccccc3)CC2)C1=O [Compound 6.2] :: 9090
C[C@@]1(c2ccc(F)cc2)NC(=O)N(C[C@@H](O)CN2CCN(C(c3ccccc3)c3ccccc3)CC2)C1=O [Compound 6.3] :: 120
C[C@@]1(c2ccc(F)cc2)NC(=O)N(C[C@H](O)CN2CCN(C(c3ccccc3)c3ccccc3)CC2)C1=O [Compound 6.4] :: 8
C[C@]1(c2ccc(F)cc2)NC(=O)N(C[C@@H](O)CN2CCN(C(c3ccccc3)c3ccccc3)CC2)C1=O [Compound 6.1] :: 2900

Shift focus to the following entry.
// field: Ki; key: CC1(c2ccc(F)cc2)NC(=O)N(CC(O)CN2CCN(C(c3ccccc3)c3ccccc3)CC2)C1=O (centres unmarked) [Compound 2] ; value = 79

====

- Target Under Test: UniProt P28223
- Sequence (P28223 whole entry): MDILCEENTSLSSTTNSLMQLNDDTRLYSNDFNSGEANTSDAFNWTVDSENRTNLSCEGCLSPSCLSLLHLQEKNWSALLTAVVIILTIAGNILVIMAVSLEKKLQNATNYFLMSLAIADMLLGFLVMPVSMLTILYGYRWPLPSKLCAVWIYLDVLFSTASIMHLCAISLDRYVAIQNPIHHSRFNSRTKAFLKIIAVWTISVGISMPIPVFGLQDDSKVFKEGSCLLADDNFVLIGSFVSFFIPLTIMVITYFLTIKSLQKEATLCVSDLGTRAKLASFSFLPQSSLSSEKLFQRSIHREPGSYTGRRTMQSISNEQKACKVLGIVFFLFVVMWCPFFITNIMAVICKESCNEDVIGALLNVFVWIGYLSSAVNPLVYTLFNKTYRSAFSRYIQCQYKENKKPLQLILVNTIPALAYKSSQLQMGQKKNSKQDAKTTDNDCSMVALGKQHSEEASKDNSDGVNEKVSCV
What Ki was measured for each of the following?
Numbers only, in µM.

Please review the entries below; each comes with its answer.
C[C@]1(c2ccc(F)cc2)NC(=O)N(C[C@H](O)CN2CCN(C(c3ccccc3)c3ccccc3)CC2)C1=O [Compound 6.2] :: 11.4
COc1ccccc1N1CCN(C[C@@H](O)CN2C(=O)N[C@@](C)(c3ccc(F)cc3)C2=O)CC1 [Compound 5.4] :: 21.8
COc1ccccc1N1CCN(C[C@@H](O)CN2C(=O)N[C@](C)(c3ccc(F)cc3)C2=O)CC1 [Compound 5.2] :: 41.1
C[C@@]1(c2ccc(F)cc2)NC(=O)N(C[C@@H](O)CN2CCN(C(c3ccccc3)c3ccccc3)CC2)C1=O [Compound 6.3] :: 4.13

Provide Ki values for the following items, in order.
1. C[C@@]1(c2ccc(F)cc2)NC(=O)N(C[C@H](O)CN2CCN(C(c3ccccc3)c3ccccc3)CC2)C1=O [Compound 6.4]
2. C[C@]1(c2ccc(F)cc2)NC(=O)N(C[C@@H](O)CN2CCN(C(c3ccccc3)c3ccccc3)CC2)C1=O [Compound 6.1]

Solution:
1: 5.79; 2: 12.3
